Reference source: paper PMC5512002

molecular target: GPR55 (Rattus norvegicus, UniProt F1MAK4); assay: inhibition of uptake of fluorescent GPR55 ligand T1117 in live C6 cells
Sequence (F1MAK4 1-319): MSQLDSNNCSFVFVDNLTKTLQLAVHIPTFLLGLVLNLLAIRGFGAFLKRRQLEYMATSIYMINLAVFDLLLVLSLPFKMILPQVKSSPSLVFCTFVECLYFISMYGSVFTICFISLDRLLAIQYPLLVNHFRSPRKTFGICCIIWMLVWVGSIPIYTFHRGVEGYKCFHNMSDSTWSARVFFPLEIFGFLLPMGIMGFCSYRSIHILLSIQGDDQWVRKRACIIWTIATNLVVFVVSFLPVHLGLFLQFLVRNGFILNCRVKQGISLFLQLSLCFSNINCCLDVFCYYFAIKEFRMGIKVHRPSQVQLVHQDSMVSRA
parameter measured: IC50
Numeric answer plus unit only.

[Q] Query the reported IC50 for GPR55 (Rattus norvegicus, UniProt F1MAK4); item: COc1ccc(C[C@@H](C)NC[C@H](O)c2cc(O)cc(O)c2)c2ccccc12 [(R,R′)-MNF]
[A] 320 nM
